Just for reference, BindingDB's records for doi:10.1007/s002109900141 is where these values come from.

Where a SMILES comes first, the peptide text is derived from it. Bridges are numbered along the chain shown (N, C = ends). [ ]: non-standard residue; d: D form. The star is where a group is joined. Asu = N[C@@H](CCCCCC(=O)O)C(=O)O; Ahp = NCCCCCCC(=O)O; Bn = c1ccc(C*)cc1
This section lists Ki readings for Somatostatin receptor type 1 (Homo sapiens, UniProt P30872).

{"columns": ["MOLECULE", "TESTED_SYSTEM", "RESULT_UNIT", "Ki"],
 "data": [
  ["CC(C)[C@@H]1NC(=O)[C@H](CCCCN)NC(=O)[C@@H](Cc2c[nH]c3ccccc23)NC(=O)[C@H](Cc2ccc(O)cc2)NC(=O)[C@@H](NC(=O)[C@H](N)Cc2ccc3ccccc3c2)CSSC[C@@H](C(=O)N[C@H](C(N)=O)[C@@H](C)O)NC1=O", "Somatostatin receptor type 1 (Homo sapiens, UniProt P30872)", "nM", 178],
  ["C[C@@H](O)[C@H](NC(=O)[C@H](Cc1ccccc1)NC(=O)[C@@H](NC(=O)[C@H](CCCCN)NC(=O)[C@@H](Cc1c[nH]c2ccccc12)NC(=O)[C@H](Cc1ccccc1)NC(=O)[C@H](Cc1ccccc1)NC(=O)[C@H](N)Cc1ccccc1)[C@@H](C)O)C(N)=O [CAS_133073-82-2] (H-[dF]FF[dW]KTFT-NH2)", "Somatostatin receptor type 1 (Homo sapiens, UniProt P30872)", "nM", 6.76],
  ["C[C@@H](OCc1ccccc1)[C@@H]1NC(=O)[C@H](CCCCN)NC(=O)[C@@H](Cc2c[nH]c3ccccc23)NC(=O)[C@H](Cc2ccccc2)NC(=O)CCCCCCNC1=O [c[Aha-Phe-D-Trp-Lys-Thr(Bzl)]] (cyclo([Ahp]F[dW]KT(Bn)))", "Somatostatin receptor type 1 (Homo sapiens, UniProt P30872)", "nM", 331],
  ["C[C@@H](O)[C@@H]1NC(=O)[C@H](Cc2ccc(O)cc2)NC(=O)[C@H]([C@@H](C)O)NC(=O)[C@H](CCCCN)NC(=O)[C@H](Cc2c[nH]c3ccccc23)NC(=O)[C@H](Cc2ccccc2)NC(=O)[C@H](Cc2ccccc2)NC(=O)[C@H](CC(N)=O)NC(=O)[C@H](CCCCN)NC(=O)CCCCC[C@@H](C(=O)O)NC(=O)[C@H](CO)NC1=O [CGP-23996] (KNFFWKTYTS[Asu]-OH; lactam N-11)", "Somatostatin receptor type 1 (Homo sapiens, UniProt P30872)", "nM", 3.54]
]}
